Tested on: sleeping caused by hexobarbital
protocol-text: Influencing the duration of sleeping caused by hexobarbital
Format: in vivo, male mice
condition-summary: mice, hexobarbital sodium 60 mg/kg i.v., 10 min later compound 20 mg/kg i.p.; control 38.4 ± 1.36 min.
Where a SMILES comes first, the peptide text is derived from it. [ ]: non-standard residue; d: D form. pGlu = O=C1CC[C@@H](C(=O)O)N1; Nle = CCCC[C@H](N)C(=O)O; Nva = CCC[C@H](N)C(=O)O; Abu = CC[C@H](N)C(=O)O
measurement-label: Decrease of sleeping period (% related to the control animals) Hexobarb. (%)

| compound | measurement-target | experimental-result |
| --- | --- | --- |
| CC[C@H](NC(=O)[C@@H]1CCC(=O)N1)C(=O)N1CCC[C@H]1C(N)=O [Abu Pro H] ([pGlu]-[Abu]-Pro-NH2) | sleeping caused by hexobarbital | 84 |
| NC(=O)[C@@H]1CCCN1C(=O)[C@H](Cc1c[nH]cn1)NC(=O)[C@@H]1CCC(=O)N1 [TRH, L-pyroglutamyl-L-histidyl-L-prolinamide, reference compound] | sleeping caused by hexobarbital | 56 |
| NC(=O)[C@@H]1CCCCN1C(=O)[C@H](Cc1c[nH]cn1)NC(=O)[C@@H]1CCC(=O)N1 [His HPro H] | sleeping caused by hexobarbital | 63 |
| CCCC[C@H](NC(=O)[C@@H]1CCC(=O)N1)C(=O)N1CCC[C@H]1C(N)=O [Nleu Pro H, L-Pyroglutamyl-L-norleucyl-L-prolinamide] ([pGlu]-[Nle]-Pro-NH2) | sleeping caused by hexobarbital | 77 |
| CCC[C@H](NC(=O)[C@@H]1CCC(=O)N1)C(=O)N1CCC[C@H]1C(N)=O [Nva Pro H, L-Pyroglutamyl-L-norvalyl-L-prolinamide] ([pGlu]-[Nva]-Pro-NH2) | sleeping caused by hexobarbital | 114 |
| CCNC(=O)[C@@H]1CCCN1C(=O)[C@H](CC(C)C)NC(=O)[C@@H]1CCC(=O)N1 [Leu Pro Et] ([pGlu]-Leu-Pro-NHEt) | sleeping caused by hexobarbital | 126 |
